# SYSTEM TESTED: Zinc finger protein mex-5 (Caenorhabditis elegans, UniProt Q9XUB2)
# Sequence (Q9XUB2 whole entry): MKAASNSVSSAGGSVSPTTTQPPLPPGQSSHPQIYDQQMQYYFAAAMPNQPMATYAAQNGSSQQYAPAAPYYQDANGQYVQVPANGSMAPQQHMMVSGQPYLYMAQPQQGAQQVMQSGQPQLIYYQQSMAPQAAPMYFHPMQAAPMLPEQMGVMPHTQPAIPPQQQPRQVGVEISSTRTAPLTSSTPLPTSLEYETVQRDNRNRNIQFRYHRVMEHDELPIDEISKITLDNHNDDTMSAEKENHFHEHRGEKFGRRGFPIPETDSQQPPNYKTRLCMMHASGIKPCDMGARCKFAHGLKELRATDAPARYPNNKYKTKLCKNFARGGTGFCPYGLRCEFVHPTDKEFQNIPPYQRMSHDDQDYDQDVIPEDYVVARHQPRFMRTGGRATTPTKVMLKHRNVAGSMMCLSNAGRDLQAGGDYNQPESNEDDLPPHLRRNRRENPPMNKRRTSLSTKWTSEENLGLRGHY
# EXPERIMENT SUMMARY: MEX-5/TCR-2 RNA interaction inhibitors, dose response, biochemical, C. elegans, fluorescence polarization (AID 1960)
The source made the active and inactive calls.

MOLECULE | EC50
Cc1nc2sc(-c3ccccc3)cc2c(=O)n1N | > 300 µM (not active)
N#Cc1c(C#N)c(-c2ccccc2)n(-c2ccc(C(=O)O)cc2)c1N | > 300 µM (not active)
COc1ccc(C2C(C(=O)c3cccs3)=C(O)C(=O)N2c2nncs2)cc1 (stereo not given) | 0.1 µM (inconclusive)
COC(=O)c1ccc(-n2c(C)cc(C(=O)CCl)c2C)cc1 | > 300 µM (not active)
COc1ccc(/C=C2\N=C(C)OC2=O)cc1OC | > 300 µM (not active)
Cc1ccc(N2C(=O)c3cccc4c(N5CCN(C)CC5)ccc(c34)C2=O)c2cccnc12 | 7.84 µM (active)
Cc1cc(/C=C2/C(=O)NC(=O)N(c3ccc(Br)cc3)C2=O)c(C)n1C | 53 µM (active)
CC1(C)CC(=O)C2=C(C1)OC(N)=C(C#N)[C@@H]2c1ccccc1[N+](=O)[O-] | 23.9 µM (active)
CCOC(=O)c1c2c3c(cccc3n(C)c1=O)C(=O)c1ccccc1-2 | 9.59 µM (active)
CCc1ccccc1N1C(=O)NC(=O)/C(=C\c2cc(C)n(C)c2C)C1=O | > 300 µM (inconclusive)
O=C(O)c1ccccc1-n1c(-c2ccccc2)cc2c1CCCC2=O | > 300 µM (not active)
Nc1c(C(=O)N/N=C/c2cccnc2)oc2nc(-c3ccccc3)cc(-c3ccco3)c12 | > 300 µM (not active)
N#CC1=C(N)C(C#N)(C#N)[C@H](c2ccsc2)[C@H]2COCC=C12 | > 300 µM (not active)
COc1cc(O)c(C(=O)O)c(-c2cc(O)c(O)cc2C)c1 [ALTENUSIN] | > 300 µM (inconclusive)
Cn1nc(-c2ccc(Cl)cc2)nc2c(=O)n(C)c(=O)nc1-2 | 16.8 µM (active)

###

Below: a set of entries, each annotated with reported IC50.
# SYSTEM TESTED: Sentrin-specific protease 6 (Homo sapiens, UniProt Q9GZR1)
# Sequence (Q9GZR1 whole entry): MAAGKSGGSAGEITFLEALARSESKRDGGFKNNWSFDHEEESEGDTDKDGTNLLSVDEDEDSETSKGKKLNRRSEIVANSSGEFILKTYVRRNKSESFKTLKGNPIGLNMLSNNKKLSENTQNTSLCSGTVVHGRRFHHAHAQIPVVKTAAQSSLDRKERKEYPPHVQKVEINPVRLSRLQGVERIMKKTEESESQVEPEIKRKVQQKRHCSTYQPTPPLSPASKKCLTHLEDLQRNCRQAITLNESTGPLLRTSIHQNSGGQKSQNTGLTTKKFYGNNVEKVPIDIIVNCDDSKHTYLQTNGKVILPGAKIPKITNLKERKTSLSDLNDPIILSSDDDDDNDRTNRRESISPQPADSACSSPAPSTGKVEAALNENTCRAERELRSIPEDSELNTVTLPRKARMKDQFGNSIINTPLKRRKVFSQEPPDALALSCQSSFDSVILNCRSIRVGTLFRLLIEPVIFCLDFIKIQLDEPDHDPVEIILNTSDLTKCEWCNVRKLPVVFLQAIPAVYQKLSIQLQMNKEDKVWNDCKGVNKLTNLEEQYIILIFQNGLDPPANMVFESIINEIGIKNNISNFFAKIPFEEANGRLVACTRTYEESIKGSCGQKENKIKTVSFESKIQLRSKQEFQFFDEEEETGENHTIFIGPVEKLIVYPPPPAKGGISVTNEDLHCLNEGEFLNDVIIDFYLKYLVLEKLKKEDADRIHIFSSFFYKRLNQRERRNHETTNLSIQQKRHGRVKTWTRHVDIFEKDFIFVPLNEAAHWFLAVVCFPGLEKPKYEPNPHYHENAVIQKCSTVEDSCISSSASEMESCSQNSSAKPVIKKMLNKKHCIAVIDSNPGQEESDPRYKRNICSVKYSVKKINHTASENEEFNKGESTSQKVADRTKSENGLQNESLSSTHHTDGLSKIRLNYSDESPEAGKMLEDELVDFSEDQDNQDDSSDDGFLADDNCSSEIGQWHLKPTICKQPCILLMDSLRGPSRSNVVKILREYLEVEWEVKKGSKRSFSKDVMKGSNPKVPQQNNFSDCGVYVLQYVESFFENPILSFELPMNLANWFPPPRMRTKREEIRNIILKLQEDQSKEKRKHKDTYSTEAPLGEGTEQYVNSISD
# EXPERIMENT SUMMARY: SAR Analysis of small molecule inhibitors of Sentrin-specific protease 6 (SENP6) using a Luminescent assay. [Related pubchem assays (depositor defined):AID2582, AID2599]
# Type: functional
Calls of active or inactive are those of the source.

ITEM SMILES | IC50
O=C(Nc1nc2ccccc2s1)c1ccsc1 | 1400 nM (active)
CC(C)(C)c1ccc2c(c1)C(=O)c1ccccc1C2=O | 927 nM (active)
CCCCNc1cc(NC(C)=O)cc2cc(OC)c(OC)cc12 | 82000 nM (active)
O=C(Nc1nc2ccc(Cl)cc2s1)c1cccs1 | 1300 nM (active)

###

# SYSTEM TESTED: Ubiquitin-conjugating enzyme E2 N (Homo sapiens, UniProt P61088)
# Sequence (P61088 whole entry): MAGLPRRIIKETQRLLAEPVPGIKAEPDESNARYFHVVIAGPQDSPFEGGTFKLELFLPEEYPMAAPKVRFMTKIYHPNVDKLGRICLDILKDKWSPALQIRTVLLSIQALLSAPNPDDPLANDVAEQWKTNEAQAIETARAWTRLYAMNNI
# Format: functional
Calls of active or inactive are those of the source.
Classes used: active, inactive

MOLECULE | SYSTEM TESTED | ANSWER LABEL
COc1cccc2sc(N(CCCN(C)C)C(=O)c3ccc(S(=O)(=O)N4CCc5ccccc5C4)cc3)nc12 | Ubiquitin-conjugating enzyme E2 N (Homo sapiens, UniProt P61088) | active
COc1ccccc1NC(=O)CN1CCC(n2nnc3cc(F)ccc32)CC1 | Ubiquitin-conjugating enzyme E2 N (Homo sapiens, UniProt P61088) | active
CN1CCN(C(=O)CCN2C(=O)/C(=C/c3ccccc3Cl)SC2=S)CC1 | Ubiquitin-conjugating enzyme E2 N (Homo sapiens, UniProt P61088) | inactive
CC(=O)c1ccc(OCC(O)CN2CCN(CCN3C(=O)c4cccc5cccc(c45)C3=O)CC2)cc1 (centres undefined) | Ubiquitin-conjugating enzyme E2 N (Homo sapiens, UniProt P61088) | active

###

Below: a set of entries, each annotated with reported EC50.
# SYSTEM TESTED: Short transient receptor potential channel 4 (Mus musculus, UniProt Q9QUQ5)
# Sequence (Q9QUQ5 whole entry): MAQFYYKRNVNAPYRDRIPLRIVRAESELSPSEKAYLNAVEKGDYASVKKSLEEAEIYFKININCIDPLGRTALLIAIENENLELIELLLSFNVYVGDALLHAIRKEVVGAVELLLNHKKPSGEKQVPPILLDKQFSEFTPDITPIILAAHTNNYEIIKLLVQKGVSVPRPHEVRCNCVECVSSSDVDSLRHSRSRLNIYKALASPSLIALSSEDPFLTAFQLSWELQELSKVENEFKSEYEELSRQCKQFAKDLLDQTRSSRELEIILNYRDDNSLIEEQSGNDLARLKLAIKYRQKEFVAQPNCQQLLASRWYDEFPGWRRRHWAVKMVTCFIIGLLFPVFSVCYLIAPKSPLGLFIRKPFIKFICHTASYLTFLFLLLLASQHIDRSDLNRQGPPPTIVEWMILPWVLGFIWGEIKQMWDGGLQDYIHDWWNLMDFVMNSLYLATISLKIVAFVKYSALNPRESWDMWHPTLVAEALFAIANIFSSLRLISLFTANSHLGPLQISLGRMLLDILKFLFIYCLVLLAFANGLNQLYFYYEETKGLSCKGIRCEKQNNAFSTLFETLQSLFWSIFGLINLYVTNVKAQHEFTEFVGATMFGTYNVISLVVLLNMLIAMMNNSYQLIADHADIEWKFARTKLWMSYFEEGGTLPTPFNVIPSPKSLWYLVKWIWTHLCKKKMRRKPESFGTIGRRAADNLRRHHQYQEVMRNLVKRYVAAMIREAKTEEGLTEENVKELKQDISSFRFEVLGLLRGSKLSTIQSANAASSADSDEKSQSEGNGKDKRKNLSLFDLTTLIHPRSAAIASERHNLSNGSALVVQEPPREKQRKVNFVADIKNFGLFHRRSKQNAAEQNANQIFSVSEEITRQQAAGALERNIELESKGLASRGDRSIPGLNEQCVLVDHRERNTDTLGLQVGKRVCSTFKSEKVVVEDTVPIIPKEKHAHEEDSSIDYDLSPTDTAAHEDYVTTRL
# EXPERIMENT SUMMARY: mouse TRPC4 channel inhibitors, dose response, cell-based, HEK293 TRPC4/mu-opioid, Fluo-4 calcium (AID 434942);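 also: potency of inhibitors blocking the TRPC4 calcium response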
# Assay type: functional
Calls of active or inactive are those of the source.
PARAMETER: EC50

MOLECULE | PARAMETER | RESULT VALUE
CCCCOc1ccc(Nc2cc(Cl)ccc2C(=O)O)cn1 | EC50 | 10.6 µM (active)
C/C(CC(=O)N(C(C)C)C(C)C)=N\NC(=O)COc1ccc(Cl)cc1Cl | EC50 | 13.3 µM (active)
O=C(C[N+]1(CC#Cc2ccccc2)CCCCC1)c1ccc(Cl)cc1 | EC50 | 7.5 µM (active)
CCOc1ccccc1CN1CCN(Cc2cccc3nonc23)CC1CCO (stereo unspecified) | EC50 | 5.31 µM (active)
Cc1cc(/C=C2/C(=N)N3C(=NC2=O)SN=C3S(C)(=O)=O)c(C)n1-c1ccccc1F | EC50 | 1.19 µM (active)
Cc1cc(C)cc(NC(=N)Nc2nc(C)cc(C)n2)c1 | EC50 | 2.99 µM (active)

###

# SYSTEM TESTED: Nonstructural protein 1 (Influenza A virus, UniProt Q194T2)
# Sequence (Q194T2 whole entry): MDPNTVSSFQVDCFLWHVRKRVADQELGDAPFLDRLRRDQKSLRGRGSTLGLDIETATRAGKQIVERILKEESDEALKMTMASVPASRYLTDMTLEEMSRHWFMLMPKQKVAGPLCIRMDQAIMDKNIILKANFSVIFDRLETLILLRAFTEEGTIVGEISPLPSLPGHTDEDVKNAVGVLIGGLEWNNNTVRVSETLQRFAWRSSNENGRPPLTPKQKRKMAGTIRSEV
# Assay type: functional, Influenza A virus (A/California/07/2009(H1N1))
Calls of active or inactive are those of the source.
Below: a set of entries, each annotated with reported IC50.
PARAMETER: IC50

COMPOUND | PARAMETER | RESULT VALUE
CC1NC(=O)NC1CCCCCC(=O)Nc1ccc(F)c(Cl)c1 (stereo unspecified) | IC50 | 1.16 µM (active)
O=C(N/N=C/c1ccccc1O)c1ccncc1 | IC50 | 7.54 µM (active)
N#CC1=C(N)Oc2c(ccc3cccnc23)C1c1cccnc1 (stereo unspecified) | IC50 | 56.6 µM (active)
Cc1ccc2cc(C3C(C#N)=C(N)Oc4c3ccc3cccnc43)c(O)nc2c1 (stereo unspecified) | IC50 | 14.3 µM (active)
c1ccc(CNCCN2CCNCC2)nc1 | IC50 | 7.87 µM (active)
O=C(N/N=C/c1ccc(O)cc1O)c1ccncc1 | IC50 | 5.88 µM (active)

###

# SYSTEM TESTED: RNA-binding protein pos-1 (Caenorhabditis elegans, UniProt G5EF15)
# Sequence (G5EF15 whole entry): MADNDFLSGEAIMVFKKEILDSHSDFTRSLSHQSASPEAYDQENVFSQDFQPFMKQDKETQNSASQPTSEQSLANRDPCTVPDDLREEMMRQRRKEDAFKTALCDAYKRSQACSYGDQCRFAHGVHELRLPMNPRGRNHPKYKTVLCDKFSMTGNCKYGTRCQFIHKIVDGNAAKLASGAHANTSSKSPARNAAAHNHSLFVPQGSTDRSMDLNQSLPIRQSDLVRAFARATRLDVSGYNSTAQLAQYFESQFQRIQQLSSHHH
# EXPERIMENT SUMMARY: inhibitors of POS-1/mex-3 RNA binding, dose response, biochemical, fluorescence polarization (AID 1964);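 also: purified POS-1 fused to maltose binding protein made in E. coli; potency of compounds blocking POS-1 binding to fluorescent RNA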
Activity calls are given as the source filed them.
PARAMETER: EC50

COMPOUND | RESULT VALUE
N#CC1=C(N)C(C#N)(C#N)[C@H](c2ccsc2)[C@H]2COCC=C12 | > 300 µM (not active)
Cc1ccc(N2C(=O)c3cccc4c(N5CCN(C)CC5)ccc(c34)C2=O)c2cccnc12 | 7.8 µM (active)
Cc1ncc(CO)c(/C=N/NC(=O)c2cc(O)c(O)c(O)c2)c1O | 71.2 µM (active)
O=C(O)c1ccccc1-n1c(-c2ccccc2)cc2c1CCCC2=O | > 300 µM (not active)
COc1cc(O)c(C(=O)O)c(-c2cc(O)c(O)cc2C)c1 | 31 µM (active)
COC(=O)c1ccc(-n2c(C)cc(C(=O)CCl)c2C)cc1 | > 300 µM (not active)
COC(=O)Cn1cc(/C=C2\C(=O)NC(=O)N(c3ccccc3)C2=O)c2ccccc21 | > 300 µM (inconclusive)
Cc1nc2sc(-c3ccccc3)cc2c(=O)n1N | > 300 µM (not active)
Nc1c(C(=O)N/N=C/c2cccnc2)oc2nc(-c3ccccc3)cc(-c3ccco3)c12 | > 300 µM (not active)
N#Cc1c(C#N)c(-c2ccccc2)n(-c2ccc(C(=O)O)cc2)c1N | > 300 µM (not active)
CCc1ccccc1N1C(=O)NC(=O)/C(=C\c2cc(C)n(C)c2C)C1=O | > 300 µM (not active)
COc1ccc(/C=C2\N=C(C)OC2=O)cc1OC | > 300 µM (not active)
COc1ccc(C2C(C(=O)c3cccs3)=C(O)C(=O)N2c2nncs2)cc1 (configuration not stated) | 0.549 µM (inconclusive)
Cc1cc(/C=C2/C(=O)NC(=O)N(c3ccc(Br)cc3)C2=O)c(C)n1C | 52.2 µM (active)
Cn1nc(-c2ccc(Cl)cc2)nc2c(=O)n(C)c(=O)nc1-2 | 17.6 µM (active)
CCOC(=O)c1c2c3c(cccc3n(C)c1=O)C(=O)c1ccccc1-2 | 8.67 µM (inconclusive)
CC1(C)CC(=O)C2=C(C1)OC(N)=C(C#N)[C@@H]2c1ccccc1[N+](=O)[O-] | 22.3 µM (inconclusive)
